- experiment-description: PK/PD duration of effect study, single oral gavage dose: administered compound level in liver
- Assay type: in vivo, C57BL/6 mice
- conditions-used: C57BL/6, mouse, 500 mg/kg oral gavage, read-out: Cmax of transcyclohexyl NaR dimer
measured-parameter: Cmax (ng/g)
Answer in ng/g, number only, no unit symbol.

## Input So what's the measured Cmax for this one? CC(=O)OC[C@H]1O[C@@H]([n+]2cccc(C(=O)O[C@H]3CC[C@H](OC(=O)c4ccc[n+]([C@@H]5O[C@H](COC(C)=O)[C@@H](OC(C)=O)[C@H]5OC(C)=O)c4)CC3)c2)[C@H](OC(C)=O)[C@@H]1OC(C)=O [transcyclohexyl NaR dimer]
## Output 10600

Taken from patent US11180521B2.
